# Test system: Pseudomonas fluorescens HPPD polypeptide (wild-type and mutants)
# Protocol details: Coupled HPPD activity assay: turnover and residual turnover in crude HPPD polypeptide extracts with and without Cmpd. 1
# Type: biochemical
# Experimental context: absence of Cmpd. 1; changes in absorbance (OD) at 320 nm in the coupled assay, 30 min
# Turnover per record follows

| Molecule | Turnover |
| --- | --- |
| SEQ ID NO:35 (protein, mutant HPPD polypeptide) MADLYENPMGLMGFEFIEFASPTPGTLEPIFEIMGFTKVATHRSKNVHLYRQGEINLILNNEPNSIASYFAAEHGPSVCGMAFRVKDSQKAYNRALELGAQPIHIDTGPMELNLPAIKGIGGAPLYLIDRFGEGSSIYDIDFVYLEGVERNPVGAGLKVIDHLTHNVYRGRMVYWANFYEKLFNFREARYFDIKGEYTGLTSKAMSAPDGMIRIPLNEESSKGAGQIEEFLMQFNGEGIQHVAFLTDDLVKTWDALKKIGMRFMTAPGDEYYEMLEGRLPDHGEPVDQLQARGILLDGSSVEGDKRLLLQIFSEKLMGPVFFEFIQRKGDDGFGPHSFKVLFEQMERDQVRRGVLTAD | 0.27 |
| SEQ ID NO:44 (protein, mutant HPPD polypeptide) MADLYENPMGLMGFEFIEFASPTPGTLEPIFEIMGFTKVATHRSKNVHLYRQGEINLILNNEPNSIASYFAAEHGPSVCGMAFRVKDSQKAYNRALELGAQPIHIDTGPMELNLPAIKGIGGAPLYLIDRFGEGSSIYDIDFVYLEGVERNPVGAGLKVIDHLTHNVYRGRMVYWANFYEKLFNFREARYFDIKGEYTGLTSKAMSAPDGMIKIPLNEESSKGAGQIEEFLMQFNGEGIQHVAFLTDDLVKTWDALKKIGMRFMTAPGDEYYEMLEGRLPDHGEPVDQLQARGILLDGSSVEGDKRLLLQIFSEQLMGPVFFEFIQRKGDDGFGPHSFKVLFESMERDQVRRGVLTAD | 0.272 |
